# TARGET_DESC: Alpha-bungarotoxin (Bungarus multicinctus) (UniProt P60615)
# Sequence (P60615 whole entry, looked up): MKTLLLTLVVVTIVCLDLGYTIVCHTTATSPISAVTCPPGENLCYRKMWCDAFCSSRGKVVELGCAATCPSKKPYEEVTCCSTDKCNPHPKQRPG
# ASSAY_PROCEDURE: alpha-bungarotoxin binders on microarray, profiling panel, artefact control for SMM control protein annotation, biochemical, small-molecule microarray, Alexa647 label, 635/667 nm fluorescence (AID 1117)
# MEASUREMENT_PARAMETERS: alpha-BTX-A647 binding fluorescence, higher = more signal
Classification field: enter yes for composite z-score values not below 0.3, no for values below it.

# COMPOUND, TARGET_DESC, CLASS_NAME
records = [
    ("CCOC(=O)C[C@H]1[C@H](OC(=O)Cc2ccc3c(c2)OCO3)[C@@H](NC(=O)c2ccc3ccccc3c2)c2cc(OCCCO)ccc2N1C(=O)Cc1ccc(OC)cc1", "Alpha-bungarotoxin (Bungarus multicinctus) (UniProt P60615)", "yes"),
    ("O=C1C2C=CC(C(O)C(c3ccccc3)c3ccccc3)N(Nc3ccc([N+](=O)[O-])cc3)C2C(=O)N1c1ccccc1 (centres undefined)", "Alpha-bungarotoxin (Bungarus multicinctus) (UniProt P60615)", "yes"),
]

composite z-score >= 0.3 for O=C(NCc1ccccc1)[C@@]1(Cc2ccccc2)COC(c2ccc(OCCCO)cc2)=N1 ?
yes

Record CCOC(=O)C1=CC[C@@H](c2ccc(-c3ccc(OCc4ccccc4)cc3)c(OC)c2)N(S(=O)(=O)c2ccc(C)cc2)[C@H]1c1ccccc1 ; criterion: composite z-score no lower than 0.3. Met?
yes

Say whether COCC(=C=CC[C@H](O)c1ccc(OCCO)cc1)C[C@H](O)c1ccccn1 shows composite z-score of 0.3 or more.
no
